# assay-method-text: self-splicing fitness, log relative to wild type (ln ratio); higher = more splicing; Tetrahymena group I intron in knt gene, E. coli kanamycin selection, DiMSum; sequences stand for … in CUCUCU…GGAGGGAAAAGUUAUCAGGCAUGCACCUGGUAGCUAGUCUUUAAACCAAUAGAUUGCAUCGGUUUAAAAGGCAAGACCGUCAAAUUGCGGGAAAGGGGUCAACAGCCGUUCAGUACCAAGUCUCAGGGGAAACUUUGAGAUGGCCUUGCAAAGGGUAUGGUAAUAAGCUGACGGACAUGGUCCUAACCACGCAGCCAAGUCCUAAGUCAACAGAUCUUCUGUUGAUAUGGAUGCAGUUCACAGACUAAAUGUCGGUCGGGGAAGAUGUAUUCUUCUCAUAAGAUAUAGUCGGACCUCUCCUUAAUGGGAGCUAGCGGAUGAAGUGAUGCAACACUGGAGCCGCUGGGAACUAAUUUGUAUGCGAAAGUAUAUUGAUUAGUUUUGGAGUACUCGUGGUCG;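 also: selection with 25 µg/mL kanamycin versus none on LB agar overnight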
# cond: 37 °C
Binary classification by self-splicing fitness (ln), with -1 as an inclusive lower bound for 1; all other cases are -1.

Req: Is self-splicing fitness (ln) at least -1? Consider CCCGAGCAAUAUUACGCAUG
Resp: -1

Req: Would you mind doing UAGCAGCAAUAUUACGUGGG as well?
Resp: -1

Req: Would you mind doing CUGUAGCAAUAUUACGUCGG as well?
Resp: -1

Req: Would you mind doing GCUGAGCAAUAUUACGGAUG as well?
Resp: -1

Req: Would you mind doing CCGGAGCAAUAUUACGGCAC as well?
Resp: 1

Req: Would you mind doing CGGAAGCAAUAUUACGAUAG as well?
Resp: 1

Req: Would you mind doing CAGAAGCAAUAUUACGUGCU as well?
Resp: -1

Req: Would you mind doing UAAAAGCAAUAUUACGAUAU as well?
Resp: 1
